experiment: Pharmacokinetics in mice; assay type: in vivo, mouse; details: male, CD1, mouse, plasma, ip
Measured Attribute: half-life (h)
Numeric only. Scale: h

COc1ccc2cc(C(=O)Nc3ccc4c(c3)CN(C3CCC(=O)NC3=O)C4=O)ccc2c1 (stereo not shown) has a reported half-life of 2.5

---

tested on: MOLM-13 cells; assay: Viability assay in MOLM-13 cells; format: cell-based, human; settings: Homo sapiens, MOLM-13, 72 h, read-out: IC50 (cell viability)
Measured Attribute: IC50 (nM)
Numeric only. Scale: nM

COc1cccc2c1OCC(C(=O)Nc1ccc3c(c1)CN(C1CCC(=O)NC1=O)C3=O)=C2 (centres unmarked)	4

// switching to the query compound
COc1ccc2cc(C(=O)Nc3ccc4c(c3)CN(C3CCC(=O)NC3=O)C4=O)ccc2c1 (centres unmarked) has a reported IC50 of 5

---

molecular target: CRBN (Homo sapiens)
Sequence (Q96SW2 whole entry): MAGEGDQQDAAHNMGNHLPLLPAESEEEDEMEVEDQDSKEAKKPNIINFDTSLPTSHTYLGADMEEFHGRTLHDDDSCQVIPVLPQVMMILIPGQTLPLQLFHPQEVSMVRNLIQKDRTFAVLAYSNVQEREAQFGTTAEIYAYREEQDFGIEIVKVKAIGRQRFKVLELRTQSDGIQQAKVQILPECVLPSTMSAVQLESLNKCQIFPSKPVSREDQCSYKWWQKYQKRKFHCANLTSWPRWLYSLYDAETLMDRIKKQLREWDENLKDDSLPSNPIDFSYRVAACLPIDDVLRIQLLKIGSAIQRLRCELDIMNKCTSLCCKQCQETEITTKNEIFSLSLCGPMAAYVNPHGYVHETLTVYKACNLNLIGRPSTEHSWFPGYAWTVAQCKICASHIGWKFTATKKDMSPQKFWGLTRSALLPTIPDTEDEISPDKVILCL
Measured Attribute: Kd (nM)
Numeric only. Scale: nM

Tested on CRBN (Homo sapiens): COc1ccc2cc(C(=O)Nc3ccc4c(c3)CN(C3CCC(=O)NC3=O)C4=O)ccc2c1 (stereo not shown) [DEG-35] . Observed Kd: 473

---

tested on: healthy bone marrow cells; assay: Viability assay in healthy bone marrow cells; format: cell-based; conditions: Homo sapiens, Bone marrow cell, 48 h, read-out: IC50 (viability)
Measured Attribute: IC50

COc1ccc2cc(C(=O)Nc3ccc4c(c3)CN(C3CCC(=O)NC3=O)C4=O)ccc2c1 (stereo not shown) has a reported IC50 of 15.7 nM

---

system: MLL-AF9 leukemic bone marrow Crbn^I391V cells; assay: Viability assay in MLL-AF9 leukemic bone marrow Crbn^I391V cells; assay type: cell-based; conditions: Mus musculus, MLL-AF9, 72 h, read-out: IC50 (proliferation)
Measured Attribute: pIC50
// pIC50 here means minus log10 of the molar concentration (mol/L)

COc1ccc2cc(C(=O)Nc3ccc4c(c3)CN(C3CCC(=O)NC3=O)C4=O)ccc2c1 (stereo not shown) has a reported pIC50 of 8.04

---

test: Pharmacokinetics in mice; type: in vivo, mouse; settings: female, Crbn^I391V, mouse, plasma, ip, 223 mg/kg
Measured Attribute: half-life (h)
Numeric only. Scale: h

COc1cccc2c1OCC(C(=O)Nc1ccc3c(c1)CN(C1CCC(=O)NC1=O)C3=O)=C2 (stereo not shown) has a reported half-life of 16.9

---

test system: MOLM-13 cells; test: Viability assay in MOLM-13 cells; format: cell-based, human; conditions: Homo sapiens, MOLM-13, 72 h, read-out: IC50 (viability)
Measured Attribute: pIC50
// pIC50 here means minus log10 of the molar concentration (mol/L)

COc1ccc2cc(C(=O)Nc3ccc4c(c3)CN(C3CCC(=O)NC3=O)C4=O)ccc2c1 (stereo not shown) [DEG-35] has a reported pIC50 of 8.24
